Each entry below lists one item and its recorded EC50 value.
# System: WT (wild-type HIV virus; recombinant NL4-3 virus)
# experiment description: microbe, parasite or virus in culture
# Assay type: cell-based, HIV-1
# settings: Human immunodeficiency virus 1, NL43, MT2, read-out: WT (EC50, uM), Table 1 regular screen, MT-2 cells, luciferase readout

| compound | EC50 |
| --- | --- |
| CC(C)[C@@H]1CC[C@]2(NCCN3CCS(=O)(=O)CC3)CC[C@]3(C)[C@H](CC[C@@H]4[C@@]5(C)CC=C(C6=CC[C@@](CF)(C(=O)O)CC6)C(C)(C)[C@@H]5CC[C@]43C)[C@@H]12 | 0.00134 µM |
| C=C(C)[C@@H]1CC[C@]2(NCCN3CCOCC3)CC[C@]3(C)[C@H](CC[C@@H]4[C@@]5(C)CC=C(C6=CC[C@](CF)(C(=O)O)CC6)C(C)(C)[C@@H]5CC[C@]43C)[C@@H]12 | 0.00453 µM |
| C=C(C)[C@@H]1CC[C@]2(NCCN3CCS(=O)(=O)CC3)CC[C@]3(C)[C@H](CC[C@@H]4[C@@]5(C)CC=C(C6=CC[C@@](CF)(C(=O)O)CC6)C(C)(C)[C@@H]5CC[C@]43C)[C@@H]12 | 0.00148 µM |
| C=C(C)[C@@H]1CC[C@]2(NCCN3CCOC3=O)CC[C@]3(C)[C@H](CC[C@@H]4[C@@]5(C)CC=C(C6=CC[C@](CF)(C(=O)O)CC6)C(C)(C)[C@@H]5CC[C@]43C)[C@@H]12 | 0.0053 µM |
| C=C(C)[C@@H]1CC[C@]2(NCCN3CCS(=O)(=O)CC3)CC[C@]3(C)[C@H](CC[C@@H]4[C@@]5(C)CC=C(C6=CCC(CF)(C(=O)O)CC6)C(C)(C)[C@@H]5CC[C@]43C)[C@@H]12 (mixture of isomers) | 0.00129 µM |
| C=C(C)[C@@H]1CC[C@]2(NCCC3(O)CCN(C(C)=O)CC3)CC[C@]3(C)[C@H](CC[C@@H]4[C@@]5(C)CC=C(C6=CC[C@](CF)(C(=O)O)CC6)C(C)(C)[C@@H]5CC[C@]43C)[C@@H]12 | 0.00173 µM |
| C=C(C)[C@@H]1CC[C@]2(NCCN3CCC(C(=O)O)(C(=O)O)CC3)CC[C@]3(C)[C@H](CC[C@@H]4[C@@]5(C)CC=C(C6=CC[C@@](CF)(C(=O)O)CC6)C(C)(C)[C@@H]5CC[C@]43C)[C@@H]12 | 0.43 µM |
| C=C(C)[C@@H]1CC[C@]2(NCC=C(C3CC3)C3CC3)CC[C@]3(C)[C@H](CC[C@@H]4[C@@]5(C)CC=C(C6=CC[C@](CF)(C(=O)O)CC6)C(C)(C)[C@@H]5CC[C@]43C)[C@@H]12 | 0.011 µM |
